Source of measurements: the Immune Epitope Database (IEDB)

- measurement-target: HLA-A*03:01
- assay-method-text: IEDB peptide-MHC binding, purified MHC/direct/fluorescence; filed as Kd, often an IC50 or EC50 that approximates it; bounds were set here for any values at or beyond the usual limits of such assays
- stated-conditions: source organism: Vibrio vulnificus
measurement-label: pKd
Remember, pKd is on a log scale: it is -log10 of the molar concentration.

GET /values?item= ASILSRMAY &system= HLA-A*03:01 returns pKd: 6.01

* * *

- measurement-target: HLA-A*02:06
- assay-method-text: IEDB peptide-MHC binding, purified MHC/competitive/radioactivity; filed as Kd, often an IC50 or EC50 that approximates it; bounds were set here for any values at or beyond the usual limits of such assays
- stated-conditions: source organism: Dengue virus 2 Peru/IQT2913/1996
measurement-label: pKd
Remember, pKd is on a log scale: it is -log10 of the molar concentration.

Just so you know, measured pKd for FQRVLIFIL came out at 5.80
